Molecular target: HLA B*0702 (Homo sapiens, UniProt P01889)
Type: binding
Conditions: positional scanning combinatorial 9-mer library; normalized to 1.0 for the best residue at each position
Quick rule for you: Normalized average relative binding affinity (ARB), HLA B*0702 at 0.09 or higher means t, lower means f.

> print(dat)
                sequence  cat
1  GXXXXXXXX [3064.0006]    t
2  XXEXXXXXX [3064.0044]    f
3  XAXXXXXXX [3064.0021]    f
4  XXXDXXXXX [3064.0063]    t

Check if Normalized average relative binding affinity (ARB), HLA B*0702 >= 0.09 (inclusive). Item: EXXXXXXXX [3064.0004] f

Check if Normalized average relative binding affinity (ARB), HLA B*0702 >= 0.09 (inclusive). Item: XXSXXXXXX [3064.0056] t

Check if Normalized average relative binding affinity (ARB), HLA B*0702 >= 0.09 (inclusive). Item: XKXXXXXXX [3064.0029] f

Check if Normalized average relative binding affinity (ARB), HLA B*0702 >= 0.09 (inclusive). Item: CXXXXXXXX [3064.0002] t

Check if Normalized average relative binding affinity (ARB), HLA B*0702 >= 0.09 (inclusive). Item: XRXXXXXXX [3064.0035] f

Check if Normalized average relative binding affinity (ARB), HLA B*0702 >= 0.09 (inclusive). Item: XNXXXXXXX [3064.0032] f

---

Target: HLA B*1503 (Homo sapiens, UniProt P01889, A329T/A93T/A95T/C349S/D201E/D98Y/E187L/E204Q/K202T/N87E/Q94N/R155S/R180L/S121R/S35A/V306I/V36M/Y140S/Y91S)
Assay: biochemical
Format: binding
I'd appreciate it if you could label each record using Normalized average relative binding affinity(ARB) and these ranges: low class (below 0.2), middle class (0.2 to below 0.4), high class (0.4 or more)

Check out these entries, answers already filled in.
> print(dat)
                 sequence           cat
 1  XXXXXXXAX [3064.0141]  middle class
 2  XXXXXXHXX [3064.0127]     low class
 3  XXXXXXPXX [3064.0133]     low class
 4  XXXXDXXXX [3064.0083]  middle class
 5  XXXMXXXXX [3064.0071]    high class
 6  XXXXXXEXX [3064.0124]     low class
 7  XXXXXXXFX [3064.0145]  middle class
 8  XXXXXXKXX [3064.0129]     low class
 9  XXXXXXXCX [3064.0142]     low class
10  XXXXXXRXX [3064.0135]  middle class

// return the class label for XXXXXXXGX [3064.0146] low class

// return the class label for XXXXPXXXX [3064.0093] high class

// return the class label for XXXIXXXXX [3064.0068] middle class

// return the class label for XXXXXXSXX [3064.0136] middle class

// return the class label for XXXXXWXXX [3064.0119] middle class

// return the class label for XXXXXXTXX [3064.0137] low class

// return the class label for XXXXXHXXX [3064.0107] middle class

// return the class label for XXXSXXXXX [3064.0076] high class

// return the class label for XXXXVXXXX [3064.0098] middle class

// return the class label for XXXXXXXHX [3064.0147] high class

---

Target: HLA B*5301 (Homo sapiens, UniProt P01889, A329T/A93T/A95T/C349S/D201E/D98Y/E176V/E187L/E204Q/E69T/G107R/I218V/K202T/L105A/L119I/N104I/Q94N/R106L/R155S/R180L/S101N/S121R/S35A/S48A/T118I/V127L/V306I/V36M/Y140S/Y91F)
Format: binding
# note: boundary value 0.02 maps to Not met; Normalized average relative binding affinity (ARB), HLA B*5301 below it maps to Met

Check out these entries, answers already filled in.
> print(dat)
                sequence      cat
1  VXXXXXXXX [3064.0018]      Met
2  PXXXXXXXX [3064.0013]      Met
3  KXXXXXXXX [3064.0009]      Met
4  XXXAXXXXX [3064.0061]  Not met

Lab note: Normalized average relative binding affinity (ARB), HLA B*5301 threshold 0.02. Does this sequence come in strictly under it? XXXCXXXXX [3064.0062] Not met

---

Biological target: HLA B*5401 (Homo sapiens, UniProt P01889, A329T/C349S/D138N/D201E/E176V/E187T/E204Q/E69G/I76V/K202T/L119W/R155S/R180L/S121T/S35A/S48A/V127L/V306I/V36M/Y140L)
Assay type: binding
endpoint: Normalized average relative binding affinity(ARB)
Reply: number alone, nothing else.

> print(dat)
                sequence  recorded.number
1  XXXXXXXVX [3064.0158]             0.10
2  XXXXXCXXX [3064.0102]             0.10

With those in mind, consider the next sequence.
response.value for XXXXXXSXX [3064.0136] (field: Normalized average relative binding affinity(ARB)) = 0.098

---

Listing of recorded Normalized average relative binding affinity(ARB) by entry.
Molecular target: H-2 D^b (Mus musculus)
Assay type: binding
Reply: number alone, nothing else.

# annotated cases, reported Normalized average relative binding affinity(ARB) shown
> print(dat)
                sequence  recorded.number
1  XXXXMXXXX [3064.0091]            0.086
2  XXXXAXXXX [3064.0081]            0.046
3  XXXXXXXYX [3064.0160]             0.97
4  XXXXXWXXX [3064.0119]              1.0
5  XXXXXXCXX [3064.0122]             0.28

response.value for XXXVXXXXX [3064.0078] (field: Normalized average relative binding affinity(ARB)) = 0.87

response.value for XXXXFXXXX [3064.0085] (field: Normalized average relative binding affinity(ARB)) = 0.044

response.value for XXXXEXXXX [3064.0084] (field: Normalized average relative binding affinity(ARB)) = 0.021

response.value for XXXXHXXXX [3064.0087] (field: Normalized average relative binding affinity(ARB)) = 0.066

response.value for XXXXXXMXX [3064.0131] (field: Normalized average relative binding affinity(ARB)) = 0.24

response.value for XXXXXXXDX [3064.0143] (field: Normalized average relative binding affinity(ARB)) = 0.090

response.value for XXXXKXXXX [3064.0089] (field: Normalized average relative binding affinity(ARB)) = 0.032

response.value for XXXXXXRXX [3064.0135] (field: Normalized average relative binding affinity(ARB)) = 0.15

response.value for XXXXXIXXX [3064.0108] (field: Normalized average relative binding affinity(ARB)) = 0.77

---

Listing of recorded Normalized average relative binding affinity(ARB) by entry.
Target: H-2 K^d (Mus musculus, UniProt P01902)
Sequence (P01887 21-119): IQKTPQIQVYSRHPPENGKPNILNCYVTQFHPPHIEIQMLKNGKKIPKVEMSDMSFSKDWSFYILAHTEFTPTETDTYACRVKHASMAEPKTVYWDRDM
Sequence (P01902 22-368): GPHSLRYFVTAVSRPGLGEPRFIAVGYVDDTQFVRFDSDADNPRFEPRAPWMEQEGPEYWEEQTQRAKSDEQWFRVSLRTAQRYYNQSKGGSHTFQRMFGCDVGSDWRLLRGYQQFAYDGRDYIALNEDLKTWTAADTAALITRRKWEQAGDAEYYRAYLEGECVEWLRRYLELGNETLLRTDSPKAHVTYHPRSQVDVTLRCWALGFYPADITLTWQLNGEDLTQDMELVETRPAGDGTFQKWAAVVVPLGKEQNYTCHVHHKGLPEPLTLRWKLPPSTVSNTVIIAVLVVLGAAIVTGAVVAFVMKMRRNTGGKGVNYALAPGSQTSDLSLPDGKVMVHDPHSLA
Format: binding

# annotated cases, reported Normalized average relative binding affinity(ARB) shown
> print(dat)
                sequence  result
1  XXXXXXLXX [3064.0130]    0.10
2  XXXXXXFXX [3064.0125]   0.088
3  XXXXSXXXX [3064.0096]     1.0
4  XXXXXXXAX [3064.0141]     1.0
5  XXXXAXXXX [3064.0081]    0.37

response.value for XXXXXXCXX [3064.0122] (field: Normalized average relative binding affinity(ARB)) = 0.12

---

Listing of recorded Normalized average relative binding affinity(ARB) by entry.
Target: HLA B*1503 (Homo sapiens, UniProt P01889, A329T/A93T/A95T/C349S/D201E/D98Y/E187L/E204Q/K202T/N87E/Q94N/R155S/R180L/S121R/S35A/V306I/V36M/Y140S/Y91S)
Assay: biochemical
Format: binding
Reply: number alone, nothing else.

# annotated cases, reported Normalized average relative binding affinity(ARB) shown
> print(dat)
                sequence  recorded.number
1  XXXXXXXRX [3064.0155]             0.11
2  XXXXXSXXX [3064.0116]             0.51
3  XXXXXXWXX [3064.0139]             0.15
4  XXXXIXXXX [3064.0088]             0.12
5  XXXXXXAXX [3064.0121]           0.0014
6  XXXXXXXDX [3064.0143]             0.14
7  XXXXQXXXX [3064.0094]             0.20
8  XXXXXXFXX [3064.0125]            0.077

response.value for XXXXXXXKX [3064.0149] (field: Normalized average relative binding affinity(ARB)) = 0.085
